pKd reference
biological target: HSV-1 glycoprotein D-Fc fusion protein (HSV-1) (UniProt Q69091); assay: SPR Biacore T200, single cycle kinetics, G-Fc captured on anti-human IgG, 1:1 fit
Units for pKd: none; it is -log10 of a concentration expressed in mol/L.

Take a look at these entries with their results.
BINDER	RECORDED VALUE
3-G-77_M13R (VHH, not shown: small tags and cut ends) VHH: QVQLVESGGGLVQPGGSLRLSCSASGFSFAFKNYAMSWVRQAPGKGLEWVSTMSGGGGDTKYADSVKGRFTISRDNNKNTVYLQMNSLKPEDTAVYYCAKGWITNNQFAFAPRGQGTQVTVSS	9.74
3-G-44_M13R (VHH, not shown: small tags and cut ends) VHH: QVQLVESGGGLVQPGGSLRLSCTASGFSFAFKNYAMSWVRQAPGKGLEWVSTMSGGGGDTKYADSVKGRFTISRDNAKNAVYLQMNSLKPEDTAVYYCAKGWITTDQFATAPRGQGTQVTVSS	10.29
3-G-41_M13R (VHH, not shown: small tags and cut ends) VHH: QVQLVESGGGLVQPGGSLRLSCAASGFSFSFKNYAMSWVRQAPGKGLEWVSTMSGGGGDIKYADSVKGRFTISRDNAKNTLYLQMNSLKPEDTAVYYCAKGWITTDQFTNTPRGQGTQVTVSS	10.02

Turning to the following binder.
Fill blank: measured pKd of the binder 3-G-75_M13R (VHH, not shown: small tags and cut ends) VHH: QVKLEESGGGVVQDGGSLRLSCAAIEQFFTTNAMAWFRQAPGKERELVAATDWSGQSTSYADSVKGRFTISRDTAKNVMYLQMNILHTEDTAVYYCARAPGRVLLTSDLESYTIWGQGTQVTVSS is ____.
8.40
